The origin of these recorded values is paper PMC6270409.

Entries and their pIC50 values follow.
tested on: influenza B (B/Jifang/13/97); assay: Anti-influenza CPE assay in MDCK cells, oseltamivir-null B/Jifang/13/97; format: cell-based; details: Influenza B virus, read-out: IC50 B/Jifang/13/97
pIC50: −log10 of the molar value.

{"columns": ["COMPOUND", "MEASUREMENT_LABEL", "READING"],
 "data": [
  ["CC(=O)OC[C@H]1O[C@@H](Oc2ncccc2F)[C@H](OC(C)=O)[C@@H](OC(C)=O)[C@@H]1OC(C)=O [Compound 12a]", "pIC50", "< 4.30"],
  ["COC(=O)c1c(F)cccc1O[C@@H]1O[C@H](COC(C)=O)[C@@H](OC(C)=O)[C@H](OC(C)=O)[C@H]1OC(C)=O", "pIC50", "< 4.35"]
]}

Next, consider the following compound.
Reported pIC50 ( CC(=O)OC[C@H]1O[C@@H](Oc2ccncc2)[C@H](OC(C)=O)[C@@H](OC(C)=O)[C@@H]1OC(C)=O [Compound 11a] ) = < 4.28
